Recorded below: IC50, system Matrix metalloproteinase-15 (Homo sapiens).
One number for each entry, in nM.

O=C(NO)C1c2ccc(O)cc2CCN1S(=O)(=O)c1ccccc1 (stereo not drawn); 218

For every listed record, write down its IC50.
1. O=C(NO)C1c2ccc(O)cc2CCN1S(=O)(=O)c1cc(Cl)ccc1Cl (stereo not drawn)
2. Cc1ccc(S(=O)(=O)N2CCc3cc(OCc4ccccc4)ccc3C2C(=O)NO)cc1 (stereo not drawn)

Solution:
1. 1790
2. 44
